- ASSAY EXPLANATION: chemical genetic growth profiling, strain panel (AID 1159580);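 note: tested at 20 µM; growth read once vehicle control cultures reached saturation at 30 °C; 1 = growth at the plate median or of vehicle wells; lower values mean less growth of the strain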
- PROTOCOL CONDITIONS: S. cerevisiae deletion strains, growth OD, locus YPR119W, strain clb2, active compounds read low
Out of some 5,500 compounds screened, about 2,000 (36%) were called active. Not shown: some 18% with an inconclusive outcome. The list shows a part of the results.
# reported normalized growth; entries follow
Note: the reply should be a number with no unit written.

Example entries begin here.
{"columns": ["COMPOUND", "REPORTED"],
 "data": [
  ["COC(=O)/C(=C1\\OC(=O)C(c2ccccc2)=C1O)c1ccccc1", 0.99],
  ["Cc1cc(=O)oc2cc(O)c(O)cc12", 1.01],
  ["CN[C@@H]1[C@H](O)[C@H](NC)[C@H]2O[C@@]3(O)C(=O)C[C@@H](C)O[C@H]3O[C@@H]2[C@H]1O", 1.02]
]}

Exam item: Tell me measured normalized growth for COc1ccccc1OCC(O)CO (stereo not given) please.
Marked response: 0.992

Exam item: Answer with reported normalized growth of N=C(N)N
Marked response: 0.974

Exam item: Indicate the recorded normalized growth value for this compound: CN(C)C(=O)Oc1cccc([N+](C)(C)C)c1
Marked response: 0.995

Exam item: Supply recorded normalized growth for CCOC(=O)[C@H](CCc1ccccc1)N[C@@H](C)C(=O)N1CCC[C@H]1C(=O)O here.
Marked response: 1.02

Exam item: Input CCC(C)C(=O)OC1[C@@H]2CC3=C4CC(=O)O[C@@H](c5ccoc5)[C@]4(C)CCC3[C@@](C)(C2=O)[C@@H](CC(=O)OC)C1(C)C (stereo not given in full) , output reported normalized growth.
Marked response: 1.01

Exam item: Entry C/C1=C/CC(C)(C)/C=C/C/C(C)=C/CC1 needs its normalized growth filled in; supply it.
Marked response: 1.01

Exam item: Return value of normalized growth for input CCCOc1ccc2nc(NC(=O)OC)[nH]c2c1 , no commentary.
Marked response: 0.987
